solubility at 24 h values by entry
assay: Aqueous solubility of the compound in buffer at pH 7.4 after 24 hrs by spectrophotometric method; format: physicochemical
Quick note: give the figure in µM, leave out the unit.

Below are worked cases with known answers.
COC(=O)c1cccc(/C=N/NC(=O)c2ccc(N(C)C)cc2)c1    3.7
C/C(=N\NC(=O)c1ccc(N(C)C)cc1)c1ccc(C(=O)NO)cc1    6.2

Proceeding to the next molecule to report its solubility at 24 h.
Quick check: solubility at 24 h of CN(C)c1ccc(C(=O)N/N=C/c2ccc(C(=O)NO)cc2)cc1 ?
15

* * *

test: Chemical stability of the compound in acidic buffer assessed as compound recovery at pH 2 after 4 hrs by HPLC-PDA analysis; format: physicochemical; details: acidic buffer, pH 2; read-out: Drug recovery
Reported Property: remaining at 4 h (%)
Quick note: give the figure in %, leave out the unit.

Quick check: remaining at 4 h of CN(/N=C/c1ccc(C(=O)NO)cc1)C(=O)c1ccc(N(C)C)cc1 ?
70
